test system: 454973-116-R2-J3-PDC spheroids, viability, % test/control; assay: Anticancer human tumor 454973-116-R2-J3-PDC patient-derived pancreatic carcinoma cell line growth inhibition [GQUAD]; conditions: second compound 1 µM; first compound 0.316 µM; spheroids with HUVEC and MSC; active = viability on the fitted dose curve at most 10% of control; inactive = the rest;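 also: spheroids exposed to compounds for seven days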
Form entry, call: pick from t = active, f = inactive

CC1COCCN1c1cc(C2(S(C)(=N)=O)CC2)nc(-c2ccnc3[nH]ccc23)n1 (stereo not given) + Cc1[nH]c2ccc(F)cc2c1-c1nc2c3cccnc3c3ncccc3c2[nH]1    f

[Q] # lookup: test call for C=CCn1c(=O)c2cnc(Nc3ccc(N4CCN(C)CC4)cc3)nc2n1-c1cccc(C(C)(C)O)n1 + CN(C)c1ccc(Nc2c3ccc(NC(=O)CCN4CCCC4)cc3nc3cc(NC(=O)CCN4CCCC4)ccc23)cc1
[A] f

[Q] # lookup: test call for Cc1[nH]c2ccccc2c1CCNCc1ccc(/C=C/C(=O)NO)cc1 + Cc1cnc(CNC(=O)c2c(=O)c3ccc(N4CCCN(C)CC4)nc3n3c2sc2ccccc23)cn1
[A] t

[Q] # lookup: test call for O=C(c1cc(Cc2n[nH]c(=O)c3ccccc23)ccc1F)N1CCN(C(=O)C2CC2)CC1 + Cc1[nH]c2ccc(F)cc2c1-c1nc2c3cccnc3c3ncccc3c2[nH]1
[A] f

[Q] # lookup: test call for CC1COCCN1c1cc(-c2ccnn2C)c2ccnc(-c3ccn[nH]3)c2n1 (stereo not given) + CN(C)c1ccc(Nc2c3ccc(NC(=O)CCN4CCCC4)cc3nc3cc(NC(=O)CCN4CCCC4)ccc23)cc1
[A] f
